The reported measurements were obtained from ChEMBL document CHEMBL4689842.

tested on: HEK-293T; experiment: Multiplex assay against HEK293T; assay type: toxicity, cell-based; settings: human, 12 h, 1 µM, compound concentration 1 uM, replicate 1
Assignment: determine reported Total Cell Count for the given compounds.
API doc: respond with a numeric literal and nothing else, no unit.

// "COc1ccc(S(=O)(=O)N(CCO)c2ccccc2CN(C)C/C=C/c2ccc(Cl)cc2)cc1.O=P(O)(O)O" : Total Cell Count value = 585

Field Total Cell Count (entry "C=C1/C(=C\C=C2/CCC[C@]3(C)[C@@H]([C@H](C)/C=C/[C@H](C)C(C)C)CC[C@@H]23)C[C@@H](O)C[C@@H]1O" ) reads 156

What the record says about "COC(=N)c1nc2ccc3ncnc(Nc4ccc(OC)cc4F)c3c2s1" : Total Cell Count is 546

// field: Total Cell Count; key: "COc1cc(N2CCN(C)CC2)ccc1Nc1ncc2c(n1)N(C)c1ccccc1C(=O)N2C" ; value = 359
